# targetOrTestSystem: Recombinant Cat D (Homo sapiens (Human), UniProt P07339)
# Sequence (P07339 65-412): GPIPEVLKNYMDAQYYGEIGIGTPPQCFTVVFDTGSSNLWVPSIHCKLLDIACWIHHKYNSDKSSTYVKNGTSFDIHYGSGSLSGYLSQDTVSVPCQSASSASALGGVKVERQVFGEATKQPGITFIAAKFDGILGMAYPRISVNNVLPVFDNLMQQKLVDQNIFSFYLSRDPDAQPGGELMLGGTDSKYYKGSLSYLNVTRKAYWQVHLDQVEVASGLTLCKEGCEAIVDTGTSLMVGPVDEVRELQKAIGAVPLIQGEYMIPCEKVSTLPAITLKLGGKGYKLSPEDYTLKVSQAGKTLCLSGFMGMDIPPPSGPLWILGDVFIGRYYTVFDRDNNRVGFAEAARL
# assayComment: In vitro enzymatic Cathepsin D (Cat D) FRET assay
# Format: biochemical
# conditionSet: Cathepsin D FRET enzyme assay; read-out: IC50 IP (μM) CatD
Parameter IC50: see the listing below.
metric: IC50

>>> result("NC1=N[C@](CF)(c2cc(NC(=O)c3ccc(Cl)cn3)ccc2F)[C@@H]2C[C@]2(CO)S1")
"> 400 µM"
>>> result("C[C@]1(c2cc(NC(=O)c3ccc(Cl)cn3)cnc2F)N=C(N)S[C@@]2(CO)C[C@H]21")
"> 400 µM"
>>> result("Cc1cc(C#N)cnc1C(=O)Nc1ccc(F)c([C@@]2(CF)N=C(N)S[C@@]3(CO)C[C@H]32)c1")
"> 400 µM"

====

Parameter IC50: see the listing below.
# targetOrTestSystem: Recombinant Cat D (Homo sapiens (Human), UniProt P07339)
# assayComment: In vitro enzymatic Cathepsin D (Cat D) FRET assay
# Type: biochemical
# conditionSet: Cathepsin D FRET enzyme assay; read-out: IC50 IP (μM) CatD
metric: IC50

>>> result("COC[C@]12C[C@H]1[C@@](C)(c1cc(Nc3nccc4cc(C#N)cnc34)cc(F)c1F)N=C(N)S2")
"> 400 µM"
>>> result("C#CCOc1cnc2c(Nc3ccc(F)c([C@@]4(CF)N=C(N)S[C@@]5(CO)C[C@H]54)c3)nccc2c1")
"> 400 µM"
>>> result("NC1=N[C@](CF)(c2cc(NC(=O)c3ccc(Cl)cn3)cc(F)c2F)[C@@H]2C[C@]2(CF)S1")
"> 400 µM"

====

# targetOrTestSystem: human recombinant BACE2 (Homo sapiens (Human))
# Sequence (Q9Y5Z0 63-518): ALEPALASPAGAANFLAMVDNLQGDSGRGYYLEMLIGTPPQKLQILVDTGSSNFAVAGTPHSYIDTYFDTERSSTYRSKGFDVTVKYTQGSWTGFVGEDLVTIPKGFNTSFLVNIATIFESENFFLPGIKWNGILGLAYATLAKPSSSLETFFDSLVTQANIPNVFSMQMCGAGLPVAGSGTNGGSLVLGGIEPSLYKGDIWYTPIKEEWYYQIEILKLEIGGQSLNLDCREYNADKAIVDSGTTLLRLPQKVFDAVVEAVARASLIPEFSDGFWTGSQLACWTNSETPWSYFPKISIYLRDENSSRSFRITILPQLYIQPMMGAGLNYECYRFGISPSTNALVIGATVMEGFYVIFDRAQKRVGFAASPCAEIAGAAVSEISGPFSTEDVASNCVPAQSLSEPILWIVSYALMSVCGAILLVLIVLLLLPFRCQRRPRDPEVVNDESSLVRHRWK
# assayComment: In vitro enzymatic BACE2 FRET assay
# Format: biochemical
# conditionSet: read-out: IC50 IP (μM) BACE2 enzyme
Parameter IC50: see the listing below.
metric: IC50

>>> result("C#CCOc1cnc2c(Nc3ccc(F)c([C@@]4(C)N=C(N)S[C@@]5([C@@H](O)C(F)(F)F)C[C@H]54)c3)nccc2n1")
"0.0685 µM"
>>> result("CC(=O)[C@]12C[C@H]1[C@@](C)(c1cc(Nc3ncnc4cc(Cl)cnc34)cc(F)c1F)N=C(N)S2")
"0.0125 µM"
>>> result("Cc1nc(OCc2ncco2)cnc1C(=O)Nc1ccc(F)c([C@@]2(C)N=C(N)S[C@@]3(CF)C[C@H]32)c1")
"0.0259 µM"
>>> result("COC[C@]12C[C@H]1[C@@](C)(c1cc(Nc3nccc4cc(OCc5ncon5)cnc34)cc(F)c1F)N=C(N)S2")
"1.03 µM"

====

# targetOrTestSystem: Recombinant Cat D (Homo sapiens (Human))
# assayComment: In vitro enzymatic Cathepsin D (Cat D) FRET assay
# Assay type: biochemical
# conditionSet: read-out: IC50 IP (μM) CatD
metric: IC50 (µM)

>>> quantitativereadout("CC(C)NC(=O)[C@]12C[C@H]1[C@@](C)(c1cc(NC(=O)c3cnc(OCC(F)(F)F)cn3)ccc1F)N=C(N)S2 [Example 976]")
260
>>> quantitativereadout("C#CCOc1cnc2c(Nc3ccc(F)c([C@@]4(CF)N=C(N)S[C@H]5C[C@H]54)c3)nccc2n1 [Example 762]")
669
>>> quantitativereadout("C[C@]1(c2cc(Nc3ncnc4cc(F)cnc34)cc(F)c2F)N=C(N)S[C@H]2C[C@H]21 [Example 636]")
996

====

# targetOrTestSystem: Recombinant Cat D (Homo sapiens (Human), UniProt P07339)
# assayComment: In vitro enzymatic Cathepsin D (Cat D) FRET assay
# Assay type: biochemical
# conditionSet: read-out: IC50 IP (μM) CatD
metric: IC50

>>> result("C#C[C@H](C)Oc1cnc(C(=O)Nc2cc(F)c(F)c([C@@]3(C)N=C(N)S[C@@]4(C(F)F)C[C@@H]34)c2)c(C)n1")
"> 400 µM"
>>> result("C#C[C@H](C)Oc1cnc(C(=O)Nc2ccc(F)c([C@@]3(C)N=C(N)S[C@@]4(C(=O)NC)C[C@H]43)c2)cn1")
"> 400 µM"
>>> result("COC[C@]12C[C@H]1[C@@](C)(c1cc(Nc3nccc4cc(OCc5ncco5)cnc34)cc(F)c1F)N=C(N)S2")
"779 µM"
>>> result("NC1=N[C@](CF)(c2cc(Nc3nccc4nc(OCc5ncco5)cnc34)cc(F)c2F)[C@@H]2C[C@@H]2S1")
"> 400 µM"
>>> result("COC[C@H](C)Oc1cnc2c(Nc3cc(F)c(F)c([C@@]4(C)N=C(N)S[C@@]5(C(F)F)C[C@@H]45)c3)nccc2n1")
"> 133 µM"
>>> result("C#CCOc1cnc2c(Nc3cnc(OC)c([C@@]4(C)N=C(N)S[C@@]5(CF)C[C@H]54)c3)nccc2n1")
"> 400 µM"
>>> result("C#CCOc1cnc2c(Nc3cc(F)c(F)c([C@@]4(C)N=C(N)S[C@@]5(C(=O)NC)C[C@H]54)c3)nccc2n1")
"> 400 µM"

====

Parameter IC50: see the listing below.
# targetOrTestSystem: Recombinant Cat D (Homo sapiens (Human), UniProt P07339)
# assayComment: In vitro enzymatic Cathepsin D (Cat D) FRET assay
# Assay type: biochemical
# conditionSet: read-out: IC50 IP (μM) CatD
metric: IC50 (µM)

>>> quantitativereadout("COC1CN(C(=O)/C=C/[C@]23C[C@H]2[C@@](CF)(c2cc(NC(=O)c4ccc(Cl)cn4)ccc2F)N=C(N)S3)C1")
848
>>> quantitativereadout("C[C@]1(c2cc(Nc3nccc4nc(OCc5ncco5)cnc34)cnc2F)N=C(N)S[C@@]2(C(F)F)C[C@@H]12")
861

Hey, just so you know, these numbers are from patent US20160046618A1.
